Target: PI3-kinase p110-delta/p85-alpha (Homo sapiens, UniProt O00329)
Sequence (P27986 whole entry): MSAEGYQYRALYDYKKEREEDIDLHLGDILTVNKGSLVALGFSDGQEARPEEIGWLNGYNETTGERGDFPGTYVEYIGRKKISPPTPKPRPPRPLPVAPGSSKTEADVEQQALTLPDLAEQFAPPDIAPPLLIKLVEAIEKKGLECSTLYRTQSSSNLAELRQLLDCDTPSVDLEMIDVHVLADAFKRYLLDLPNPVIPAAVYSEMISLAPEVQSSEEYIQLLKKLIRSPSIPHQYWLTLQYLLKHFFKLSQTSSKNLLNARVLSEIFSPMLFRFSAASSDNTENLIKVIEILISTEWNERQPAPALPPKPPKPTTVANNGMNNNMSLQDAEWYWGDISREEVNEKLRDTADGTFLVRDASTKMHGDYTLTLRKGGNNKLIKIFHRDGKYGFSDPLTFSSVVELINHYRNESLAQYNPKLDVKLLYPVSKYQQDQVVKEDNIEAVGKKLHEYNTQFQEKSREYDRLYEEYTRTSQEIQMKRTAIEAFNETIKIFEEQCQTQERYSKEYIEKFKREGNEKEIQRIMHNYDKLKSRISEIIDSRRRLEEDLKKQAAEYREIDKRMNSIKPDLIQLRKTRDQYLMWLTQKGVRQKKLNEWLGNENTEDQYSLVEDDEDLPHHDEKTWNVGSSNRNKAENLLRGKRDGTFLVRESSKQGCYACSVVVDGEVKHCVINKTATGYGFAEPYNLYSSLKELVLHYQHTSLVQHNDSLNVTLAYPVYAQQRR
Sequence (O00329 whole entry): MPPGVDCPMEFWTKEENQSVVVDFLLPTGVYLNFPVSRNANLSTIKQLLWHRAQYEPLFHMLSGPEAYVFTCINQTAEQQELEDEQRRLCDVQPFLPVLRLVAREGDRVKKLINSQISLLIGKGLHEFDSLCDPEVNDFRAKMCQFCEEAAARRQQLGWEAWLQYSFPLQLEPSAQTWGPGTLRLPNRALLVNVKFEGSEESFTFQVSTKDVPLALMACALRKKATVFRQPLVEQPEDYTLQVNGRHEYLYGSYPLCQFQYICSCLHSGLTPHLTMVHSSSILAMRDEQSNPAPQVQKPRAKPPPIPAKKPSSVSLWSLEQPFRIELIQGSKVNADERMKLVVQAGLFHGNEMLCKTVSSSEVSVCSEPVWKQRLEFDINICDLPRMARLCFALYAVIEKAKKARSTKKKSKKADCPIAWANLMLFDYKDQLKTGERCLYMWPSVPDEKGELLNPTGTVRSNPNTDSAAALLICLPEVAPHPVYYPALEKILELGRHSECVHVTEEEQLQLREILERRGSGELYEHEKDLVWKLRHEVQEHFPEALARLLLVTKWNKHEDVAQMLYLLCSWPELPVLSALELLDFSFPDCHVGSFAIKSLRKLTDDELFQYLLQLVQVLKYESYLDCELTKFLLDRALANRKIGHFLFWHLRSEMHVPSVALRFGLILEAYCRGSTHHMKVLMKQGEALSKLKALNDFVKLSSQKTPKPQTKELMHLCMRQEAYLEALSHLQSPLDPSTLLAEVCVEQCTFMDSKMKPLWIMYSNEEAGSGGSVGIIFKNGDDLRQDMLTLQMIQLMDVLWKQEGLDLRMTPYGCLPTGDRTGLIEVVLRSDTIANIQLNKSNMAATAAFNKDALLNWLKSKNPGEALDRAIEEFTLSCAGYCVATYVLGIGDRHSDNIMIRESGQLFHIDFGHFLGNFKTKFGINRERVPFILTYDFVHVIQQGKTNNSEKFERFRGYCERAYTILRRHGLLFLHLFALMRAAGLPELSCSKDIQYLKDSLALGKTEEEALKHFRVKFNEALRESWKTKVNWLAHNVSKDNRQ
Assay: Inhibition of human PI3K p110delta/p85alpha using phosphatidylinositol 4,5-bisphosphate as substrate after 30 mins by HTRF assay
experimentalEndpoint: pIC50
pIC50 is a log-scale quantity: -log10 of the concentration expressed in molar.

Task: # pIC50 lookup, item COc1ncc(-c2ccc3ncc(Cl)c(=O)n3c2)cc1NS(=O)(=O)c1ccc(F)cc1F
Result: 7.80

----------
Assay: Protein binding in mouse plasma
Assay type: ADME, cell-free
experimentalEndpoint: fraction unbound
// return a plain number; no unit text

INSERT INTO assay_data (testsmiles, value) VALUES
  ('COc1ncc(-c2ccc3ncc(Cl)c(=O)n3c2)cc1NS(=O)(=O)c1ccc(F)cc1F', 0.005);

Task: # fraction unbound lookup, item COc1ncc(-c2ccc3nccc(=O)n3c2)cc1NS(=O)(=O)c1ccc(F)cc1F
Result: 0.019

Measured values drawn from ChEMBL document CHEMBL4251704 for this set.
